assay: Oral bioavailability in rat; assay type: ADME, organism-based; settings: in vivo
measurementLabel: bioavailability

Query: So what does the record say about bioavailability for COc1ccc2cc3[n+](cc2c1OC)CCc1cc2c(cc1-3)OCO2.[Cl-] [BERBERINE CHLORIDE] ?
Reply: < 1%
